Where these numbers come from: patent US20220279787A1

# System: Pseudomonas aeruginosa ATCC 27853
# assay.comment: Suspension quantitative sterilization experiment, Pseudomonas aeruginosa ATCC 27853
# Assay type: cell-based
# run.conditions: suspension method, 6.25 g/L, action time 30 min
Listed compounds paired with reported Activity (killing logarithmic value)
Answer field: number only, no words.

For orientation, consider the following solved cases.
{"compound": "CC(C)NC(=O)C(c1ccccc1)c1ccc(O)cc1 (stereo not shown) [Example 2]", "Activity (killing logarithmic value)": 0.99}
{"compound": "CNC(=O)C(c1ccccc1)c1ccc(F)c(F)c1 (stereo not shown) [Example 3]", "Activity (killing logarithmic value)": 1.56}
{"compound": "Cc1ccc(C(C(=O)O)c2ccc(O)cc2)cc1 (stereo not shown) [Example 4]", "Activity (killing logarithmic value)": 0.78}
{"compound": "CNC(=O)C(c1ccncc1)c1ccc(O)c(O)c1 (stereo not shown) [Example 6]", "Activity (killing logarithmic value)": 0.31}

So, CNC(=O)C(c1ccc(O)c(O)c1)C1CCCCC1 (stereo not shown) [Example 1] ? Its Activity (killing logarithmic value) was 1.31

The value of Activity (killing logarithmic value) measured for the compound O=C(O)C(c1ccccc1)c1ccccc1 [Example 7, 2,2-diphenylacetic acid] turned out to be 1.29

In plain terms, O=C(O)C(c1ccc(O)c(O)c1)c1ccc(O)c(O)c1 [Example 8, 2,2-di-(3,4-dihydroxyphenyl)acetic acid] has a documented Activity (killing logarithmic value) of 0.88
